Hello, the source for this data is patent US8946286B2, in case you need it.

- experiment-summary: Photostability test
- Format: physicochemical
- settings: 25° C./60% RH, vessel left open, light of 200 W·hr·m^2 for 57 hours
Item-by-item account of Weight change
Note to self: number, then unit, no commentary.

Example compounds with recorded Weight change:
• C/C(=N\NC(=S)Nc1cccc(C(=O)[O-])c1)c1csc(-c2ccc(C(C)(C)C)cc2)c1O.[K+] [(4), reference compound] = 9.36%
• C/C(=N\NC(=S)Nc1cccc(C(=O)[O-])c1)c1csc(-c2ccc(C(C)(C)C)cc2)c1O.C[N+](C)(C)CCO = 0.17%
• C/C(=N\NC(=S)Nc1cccc(C(=O)O)c1)c1csc(-c2ccc(C(C)(C)C)cc2)c1O.NC(CO)(CO)CO = 0.01%

Quick note, Weight change for C/C(=N\NC(=S)Nc1cccc(C(=O)O)c1)c1csc(-c2ccc(C(C)(C)C)cc2)c1O.NCCO landed at 0.23%

###

- experiment-summary: Hygrostability test
- Type: physicochemical
- settings: 25° C./90% RH for 2 weeks, vessel left open
assay-metric: TG loss change

* C/C(=N\NC(=S)Nc1cccc(C(=O)[O-])c1)c1csc(-c2ccc(C(C)(C)C)cc2)c1O.[K+] [(4), reference compound] | 7.86%

The molecule identified as C/C(=N\NC(=S)Nc1cccc(C(=O)O)c1)c1csc(-c2ccc(C(C)(C)C)cc2)c1O.NC(CO)(CO)CO registered its TG loss change at −0.13%

TG loss change for C/C(=N\NC(=S)Nc1cccc(C(=O)O)c1)c1csc(-c2ccc(C(C)(C)C)cc2)c1O.NCCO is −0.26%

Entry C/C(=N\NC(=S)Nc1cccc(C(=O)[O-])c1)c1csc(-c2ccc(C(C)(C)C)cc2)c1O.C[N+](C)(C)CCO — recorded TG loss change = 0.66%

###

- experiment-summary: Photostability test
- Format: physicochemical
- settings: 25° C./60% RH, vessel left open, light of 200 W·hr·m^2 for 57 hours
assay-metric: TG loss change (%)
Please reply with the bare figure in % and do not write the unit itself.

- C/C(=N\NC(=S)Nc1cccc(C(=O)O)c1)c1csc(-c2ccc(C(C)(C)C)cc2)c1O.NC(CO)(CO)CO: −0.13
- C/C(=N\NC(=S)Nc1cccc(C(=O)[O-])c1)c1csc(-c2ccc(C(C)(C)C)cc2)c1O.[K+] [(4), reference compound]: 3.16
- C/C(=N\NC(=S)Nc1cccc(C(=O)[O-])c1)c1csc(-c2ccc(C(C)(C)C)cc2)c1O.C[N+](C)(C)CCO: 0.58

Shifting focus to the compound that follows.
Entry under test: C/C(=N\NC(=S)Nc1cccc(C(=O)O)c1)c1csc(-c2ccc(C(C)(C)C)cc2)c1O.NCCO . Its TG loss change was −0.25
